Test system: SR
assayComment: NCI tumour cell line growth inhibition, 48 h
Active and inactive are the calls of the source. No stated cut-off is given here; in the data, active = GI50 up to about 1.1 µM and inactive = higher.
measuredParameter: GI50

Given the entry C/C(=N/O)c1cccc(Nc2nc3ccc(Cl)cc3c3[nH]c4ccccc4c23)c1 , report its measured GI50.
1.24 µM (inactive)

# GI50 lookup, item CC[C@@]1(O)C[C@H](OC2CC(N(C)C)C(OC3CC(O)C(OC4CCC(=O)C(C)O4)C(C)O3)C(C)O2)c2c(cc3c(c2O)C(=O)c2c(O)ccc(O)c2C3=O)[C@H]1C(=O)OC (some centres undefined)
0.000101 µM (active)

Requested field: GI50. Item: CCOC(=O)c1ccc(-n2cnc(-c3ccc([N+](=O)[O-])cc3)c2)cc1
> 100 µM (inactive)

GET /values?readout=GI50&item= CN(C)CCNC1=Nc2ccccc2C(=S)N2CSCC12 (centres undefined)
> 100 µM (inactive)

Reported GI50 for COC(=O)C(COC(C)=O)NC(=O)/C=C/c1ccc(O)c(OC(C)=O)c1 (centres undefined) : what is it?
5.81 µM (inactive)

// lookup GI50 for O=[N+]([O-])c1cc(CCl)ccc1CCl
0.893 µM (active)

Look up GI50: C/C1=C\CC[C@@]2(C)O[C@@H]2C[C@@H](C2(C)CO2)CC/C(C)=C/CC1 (some centres undefined)
33 µM (inactive)

Please look up its GI50: CCOC(=O)NN1C(=O)C(=P(c2ccccc2)(c2ccccc2)c2ccccc2)C(C(=O)OCC)=C1C
> 100 µM (inactive)

Reported GI50, compound O=c1[nH]c(Nc2ccc(Br)c(C(F)(F)F)c2)nc2[nH]cnc12 : ____
37.1 µM (inactive)

###

Test system: KM12
assayComment: NCI tumour cell line growth inhibition, 48 h
Activity calls are given as the source filed them. No stated cut-off is given here; in the data, active = GI50 up to about 1.1 µM and inactive = higher.
Bench note: report the call from Yes (active), No (inactive)

State the result this test recorded for Cc1ccc(C(=O)O)c(CC2Cc3c(C)cccc3C2=O)c1 (stereo not given) .
No

Could you check what this test reported for C=CCC1(C(=O)OC)CCC/C(=N\O)C1 (stereo not given) ?
No

State the result this test recorded for CCOC(=O)c1ccc2c(c1)nc1n2C(c2c(F)cccc2F)SC1 (stereo not given) .
No

Name the outcome recorded for O=C(O)C(Cl)(c1ccccc1)c1ccccc1 in the assay.
No

I'd appreciate the recorded outcome for CN(C)CCc1ccc(Cl)cc1Cl from this test.
No

Answer briefly: the call reported for CC1OC=CC(=O)C1O (stereo not given) in this assay.
No

State the result this test recorded for CN(C)Cc1cc(/N=N/c2c(Cl)cccc2Cl)ccc1O .
No

What outcome does the record of this test show for c1ccc(CCNc2ccccn2)nc1 ?
No

Tell me the recorded outcome of this test for Cc1ccc(-n2c(N)c(C#N)c3[nH]nc(N)c3c2=O)cc1 .
No

Which outcome was assigned to O=C(O)c1c2c(cc3c(=O)cc(-c4ccccc4)oc13)CCCC2 in this test?
No

Check the results log: what was the call for COc1cc(C)c(C(=O)/C=C/c2cc(OC)c(O)c(OC)c2)cc1O ?
No

Test call, this compound: Fc1cccc(C2SCc3nc4ccccc4n32)c1F (stereo not given)
No

Test call, this compound: CCCCc1cc2c(C)cc(=O)oc2c(O)c1O
No

Lab log entry: COC(=O)C1C(OC(=O)c2ccccc2)CC2CCC1N2C(N)=O (stereo not given) — outcome as called in the assay?
No

Entry C[N+](C)(CCNC(=O)c1cccc2cc3ccccc3nc12)Cc1ccc([N+](=O)[O-])s1 : call = ?
No

Hey, what did the test say about O=C1c2ccccc2C2(O)Oc3cccc(O)c3C12O (stereo not given) ?
No

Which result was noted for this compound in the test: COc1ccccc1CNCCCCCNCCCCCCCCCCNCCCCCNCc1ccccc1OC
No

Outcome? COc1ccc(-c2c(C#N)c(S)n(NS(=O)(=O)c3ccccc3)c(=O)c2C#N)cc1
No

Which result was noted for this compound in the test: COc1ccc(-c2c(N)n(-c3cccc(C(=O)O)c3)c(=O)c3cc([N+](=O)[O-])ccc23)cc1
No

Could you please tell me the result logged for O=C(CSc1c2ccccc2nc2ccccc12)Nc1ccccc1-c1ccccc1NC(=O)CSc1c2ccccc2nc2ccccc12 in this assay?
No

Would you mind telling me which call this test gave CC(C)=CCNc1ncnc2c1ncn2CCC#N ?
No

Could you please tell me the result logged for CC(C)C(C/C=C1/CC(CO)(COC(=O)C(C)(C)C)OC1=O)C(C)C (stereo not given) in this assay?
No

Assay result, entry COC(=O)/C=C1/OC(c2ccccc2)=C(Br)C1=O — outcome?
No

Recorded test outcome, item CC(C)COP(C)(=O)C(N)(C(F)(F)F)C(F)(F)F (stereo not given)
No

State the result this test recorded for CC(C)(C)c1ccc(OCCOc2ccc(C(C)(C)C)cc2N)c(N)c1 .
No

Identify the outcome logged in this assay for the compound shown: COc1ccc(-c2nc(SCC(=O)N/N=C/c3ccc(O)c(OC)c3)[nH]c2-c2ccc(OC)cc2)cc1
No

For this compound, state the assay outcome: O=C(Cc1ccccc1)C(c1ccccc1)S(=O)(=O)c1ccccc1 (stereo not given)
No

Given Cc1cc2nc(CC(C(F)(F)F)C(F)(F)F)oc2cc1C , state the outcome it received in this test.
No

What classification did CC1=C[C@@H]2Cc3occc3C(C)(C)[C@@H]2CC1 end up with in this test?
No

What outcome does the record of this test show for CSc1ncnc2c1cnn2Cc1cnnn1COCC(O)CO (stereo not given) ?
No

I would be grateful if you could indicate the recorded call for O=C(O[C@H]1[C@@H](O)[C@H](n2cnc3c(Cl)ncnc32)O[C@@H]1COC(c1ccccc1)(c1ccccc1)c1ccccc1)c1ccccc1 .
No

Dear all, I need the recorded test outcome for Cc1cc2nc3ccc(N(C)C)cc3[s+]c2cc1N [TOLONIUM CHLORIDE] , thank you.
No

For this compound, state the assay outcome: CCc1ccccc1NC(=O)CCc1n[nH]c(=S)o1
No

What did the test return for C/C(=N\NC(=S)N1CCN(C)CC1)c1nc2cccnc2[nH]1 ?
No

Tell me the assay call for CCOC(=O)C1c2[nH]c3ccccc3c2CCN1C(=O)c1ccc(OC)o1 (stereo not given) please.
No

Each compound tested received a call. Report the one for CCOC(=O)C1Nc2ccccc2[C@H]2OCC[C@@H]12 (stereo not given in full) .
No

State the result this test recorded for CCCCOC(=O)Nc1ccc(S(=O)(=O)Nc2ccccc2Cl)cc1 .
No

Hello, I am checking results. What call was entered for c1ccc2c3c(c(N4CCOCC4)nc2c1)CCCC3 ?
No

Answer briefly: the call reported for CC(C)OCC(O)COc1ccc2ccc(=O)oc2c1 (stereo not given) in this assay.
No

Test call, this compound: Cc1cc(S(=O)(=O)n2ccnc2Oc2cccc(Cl)c2)c(SSc2cc(Cl)c(C)cc2S(=O)(=O)n2ccnc2Oc2cccc(Cl)c2)cc1Cl
No

// outcome(item) with item = CCOC(=O)/C=C/c1c[nH]c(=O)[nH]c1=O
No

Which outcome was assigned to CC1(c2cc3c(cc2Br)OCO3)SCCCS1 in this test?
No

What was the test verdict on N/C(=N\Nc1nc2cc([N+](=O)[O-])ccc2o1)c1ccccn1 ?
Yes

Lab log entry: CN(C)c1ccc(C=c2c3ccccc3n3c2c2c([n+]3C)CCCC2)cc1 — outcome as called in the assay?
Yes

Name the outcome recorded for C=C1c2ccccc2N(S(=O)(=O)c2ccc(C)cc2)C12CCCCC2 in the assay.
No
